assay: Cmax in rat at 2 mg/kg, po; type: ADME, organism-based; design: dose 2 mg/kg, route oral; conditions: in vivo
MEASURE: Cmax (ng/mL)
Give the value in ng/mL but do not write ng/mL after it.

C[C@](O)(c1ccc(C(=O)N(C2CC2)[C@H]2CC[C@](COC(N)=O)(c3ccc(F)cc3)CC2)cc1)C(F)(F)F (mixture of isomers) has a reported Cmax of 1130

----------
experiment: Half life in rat at 0.5 mg/kg, iv; assay type: ADME, organism-based; parameters: dose 0.5 mg/kg, route intravenous; conditions: in vivo
MEASURE: half-life
Form field: result (number plus unit)

C[C@](O)(c1ccc(C(=O)N(C2CC2)[C@H]2CC[C@](COC(N)=O)(c3ccc(F)cc3)CC2)cc1)C(F)(F)F (mixture of isomers) has a reported half-life of 43 h

----------
assay: Oral bioavailability in rat at 2 mg/kg; type: ADME, organism-based; conditions: in vivo
MEASURE: bioavailability
Form field: result (number plus unit)

C[C@](O)(c1ccc(C(=O)N(C2CC2)[C@H]2CC[C@](COC(N)=O)(c3ccc(F)cc3)CC2)cc1)C(F)(F)F (mixture of isomers) has a reported bioavailability of 72%

----------
experiment: Oral bioavailability in dog at 2 mg/kg; assay type: ADME, organism-based, Canis lupus familiaris; details: in vivo
MEASURE: bioavailability (%)
Give the value in % but do not write % after it.

C[C@](O)(c1ccc(C(=O)N(C2CC2)[C@H]2CC[C@](COC(N)=O)(c3ccc(F)cc3)CC2)cc1)C(F)(F)F (mixture of isomers) has a reported bioavailability of 88

----------
test: Drug metabolism in human hepatocytes assessed as total turnover after 2 hrs by LC-MS/MS-radiometric analysis; format: ADME, cell-based, Hepatocyte; settings: read-out: Drug metabolism
MEASURE: metabolised at 2 h (%)
Give the value in % but do not write % after it.

C[C@](O)(c1ccc(S(=O)(=O)c2ccc([14C]#N)cc2Cl)cc1)C(F)(F)F has a reported metabolised at 2 h of 9.8

----------
test: Clearance in cynomolgus monkey at 0.5 mg/kg, iv; format: ADME, organism-based, Macaca fascicularis; set-up: dose 0.5 mg/kg, route intravenous; conditions: in vivo
MEASURE: clearance
Form field: result (number plus unit)

C[C@](O)(c1ccc(C(=O)N(C2CC2)[C@H]2CC[C@](COC(N)=O)(c3ccc(F)cc3)CC2)cc1)C(F)(F)F (mixture of isomers) has a reported clearance of 0.483 mL/min/kg

----------
assay: Volume of distribution at steady state in rat at 0.5 mg/kg, iv; format: ADME, organism-based; parameters: dose 0.5 mg/kg, route intravenous; conditions: in vivo, read-out: Vdss
MEASURE: Vd (L/kg)
Give the value in L/kg but do not write L/kg after it.

C[C@](O)(c1ccc(C(=O)N(C2CC2)[C@H]2CC[C@](COC(N)=O)(c3ccc(F)cc3)CC2)cc1)C(F)(F)F (mixture of isomers) has a reported Vd of 2.3

----------
assay: Cmax in dog at 2 mg/kg, po; format: ADME, organism-based, Canis lupus familiaris; set-up: dose 2 mg/kg, route oral; details: in vivo
MEASURE: Cmax (ng/mL)
Give the value in ng/mL but do not write ng/mL after it.

C[C@](O)(c1ccc(C(=O)N(C2CC2)[C@H]2CC[C@](COC(N)=O)(c3ccc(F)cc3)CC2)cc1)C(F)(F)F (mixture of isomers) has a reported Cmax of 1840

----------
Reported PB values for the following compounds.
test system: Liver microsome; assay: Oxidative metabolism in human liver microsomes assessed as protein covalent binding measured per mg protein at 10 uM after 1 hr in presence of NADPH
Give the value in pmol but do not write pmol after it.

These solved cases illustrate the format of a correct answer.
C[C@](O)(c1ccc(C(=O)N(C2CC2)[C@H]2CC[C@](CO[14C](N)=O)(c3ccc(F)cc3)CC2)cc1)C(F)(F)F; 15
C[C@](O)(c1ccc(S(=O)(=O)c2ccc([14C]#N)cc2Cl)cc1)C(F)(F)F; 370
C[C@@H]1CN(CC2(C(N)=O)CC2)[14CH2][14CH2]N1S(=O)(=O)c1ccc([C@](C)(O)C(F)(F)F)cc1; 70

The recorded PB with Liver microsome for c1ccc2ccccc2c1 was 420

----------
assay: Volume of distribution at steady state in dog at 0.5 mg/kg, iv; assay type: ADME, organism-based, Canis lupus familiaris; parameters: dose 0.5 mg/kg, route intravenous; details: in vivo, read-out: Vdss
MEASURE: Vd (L/kg)
Give the value in L/kg but do not write L/kg after it.

C[C@](O)(c1ccc(C(=O)N(C2CC2)[C@H]2CC[C@](COC(N)=O)(c3ccc(F)cc3)CC2)cc1)C(F)(F)F (mixture of isomers) has a reported Vd of 1.2

----------
experiment: Cmax in cynomolgus monkey at 2 mg/kg, po; type: ADME, organism-based, Macaca fascicularis; design: dose 2 mg/kg, route oral; conditions: in vivo
MEASURE: Cmax (ng/mL)
Give the value in ng/mL but do not write ng/mL after it.

C[C@](O)(c1ccc(C(=O)N(C2CC2)[C@H]2CC[C@](COC(N)=O)(c3ccc(F)cc3)CC2)cc1)C(F)(F)F (mixture of isomers) has a reported Cmax of 211

----------
assay: Half life in cynomolgus monkey at 0.5 mg/kg, iv; assay type: ADME, organism-based, Macaca fascicularis; set-up: dose 0.5 mg/kg, route intravenous; conditions: in vivo
MEASURE: half-life (h)
Give the value in h but do not write h after it.

C[C@](O)(c1ccc(C(=O)N(C2CC2)[C@H]2CC[C@](COC(N)=O)(c3ccc(F)cc3)CC2)cc1)C(F)(F)F (mixture of isomers) has a reported half-life of 27

----------
assay: Clearance in rat at 0.5 mg/kg, iv; type: ADME, organism-based; parameters: dose 0.5 mg/kg, route intravenous; details: in vivo
MEASURE: clearance (mL/min/kg)
Give the value in mL/min/kg but do not write mL/min/kg after it.

C[C@](O)(c1ccc(C(=O)N(C2CC2)[C@H]2CC[C@](COC(N)=O)(c3ccc(F)cc3)CC2)cc1)C(F)(F)F (mixture of isomers) has a reported clearance of 0.683
